B1: library; a variant is named by its letters at N, in order (parent)
chain: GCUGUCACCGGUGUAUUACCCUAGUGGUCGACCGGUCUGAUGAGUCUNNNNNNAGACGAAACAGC

Variants of: B1
Experiment: normalized RNA/DNA level without ligand (relative to sTRSVctl = 100) (log10 (% of sTRSVctl)); ligand: hypoxanthine (xanthine aptamer); higher = less ribozyme self-cleavage, higher mRNA level
Conditions: HEK293T, reporter: mCherry (pCS4076), ligand present: no
Quantity Kind: normalized RNA/DNA level without ligand (log10)
Could you keep your reply to the number by itself?

Worked set:
   variant_annotation  number
0              AGUGGU    1.55
1              GCCACG    1.66

Incoming: Indicate its recorded normalized RNA/DNA level without ligand (log10); the variant in question is GAGGGU
Outgoing: 1.69

Incoming: Indicate its recorded normalized RNA/DNA level without ligand (log10); the variant in question is CAAUGU
Outgoing: 1.86

Incoming: Indicate its recorded normalized RNA/DNA level without ligand (log10); the variant in question is CACUCA
Outgoing: 1.89

Incoming: Indicate its recorded normalized RNA/DNA level without ligand (log10); the variant in question is AGUGGC
Outgoing: 1.83

Incoming: Indicate its recorded normalized RNA/DNA level without ligand (log10); the variant in question is AUACGU
Outgoing: 1.84

Incoming: Indicate its recorded normalized RNA/DNA level without ligand (log10); the variant in question is CUAUCA
Outgoing: 1.86

Incoming: Indicate its recorded normalized RNA/DNA level without ligand (log10); the variant in question is UAAUAU
Outgoing: 1.8

Incoming: Indicate its recorded normalized RNA/DNA level without ligand (log10); the variant in question is UCAGUA
Outgoing: 1.8

Incoming: Indicate its recorded normalized RNA/DNA level without ligand (log10); the variant in question is GCACGA
Outgoing: 1.75
